B1: CLINT1 (parent)
chain: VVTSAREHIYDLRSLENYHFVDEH

Variants of: B1
Assay details: protein stability index of a GFP-peptide fusion (GPS, HEK-293T) (PSI 1-6); higher = more stable;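 also: lentivirally expressed fusions sorted by FACS into six bins by GFP to DsRed ratio, PSI derived from sequencing read proportions per bin multiplied by bin number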
Experimental parameters: c terminus: a fixed tail appended
Measured quantity: protein stability index
One number for each entry.

Reference set, count: 6
> print(dat)
   variant.key  quantitative.result
1         H19S                 3.21
2          S4Y                 1.48
3         D11M                 2.62
4          A5C                 2.08
5          R6Y                 2.35
6          A5N                 2.92

# batch: return protein stability index for each of the 4 variants below
1. E23L
2. L12G
3. R13T
4. Y18T

**A:**
[1.93, 3.78, 3.35, 3.94]

# batch: return protein stability index for each of the 7 variants below
1. F20V
2. V21T
3. S4Q
4. L12C
5. I9P
6. V21I
7. T3I

**A:**
1. 3.71
2. 2.84
3. 2.91
4. 2.61
5. 3.59
6. 2.52
7. 2.04

# batch: return protein stability index for each of the 2 variants below
1. S4G
2. V2H

**A:**
2.73
3.44

# batch: return protein stability index for each of the 5 variants below
1. V1G
2. N17E
3. H8M
4. H8S
5. D22E

**A:**
3.67
2.96
2.33
3.31
2.42

# batch: return protein stability index for each of the 2 variants below
1. R6A
2. H19Y

**A:**
1: 2.45; 2: 2.55

# batch: return protein stability index for each of the 4 variants below
1. V2Q
2. D22F
3. V2N
4. H24P

**A:**
1. 3.53
2. 2.2
3. 3.62
4. 2.79

# batch: return protein stability index for each of the 5 variants below
1. F20P
2. L15A
3. A5T
4. H8G
5. E16V

**A:**
[3.96, 3.32, 2.98, 3.13, 2.36]

# batch: return protein stability index for each of the 5 variants below
1. V21L
2. L15W
3. S14I
4. R6L
5. L12K

**A:**
2.82
2.56
2.15
1.75
3.78

Just for reference, the supplement of paper PMC10567573 is where these values come from.
